# System: KO-52 cells
# Experiment Notes: Proliferation assay, spheroid-like growth, KO-52 (MLL wildtype control cell line)
# Assay type: cell-based, human
# Test Settings: Homo sapiens, 192 h, KO-52 control cells, 8 days, confluence as measure of spheroid size; read-out: spheroid assay_OneTime KO-52 IC50
# Description: The anti-proliferative effect of menin/MLL protein/protein interaction inhibitor test compounds was assessed in human leukemia cell lines. […] In order to assess the anti-proliferative effects, 200 MOLM14 cells, or 300 KO-52 cells were seeded in 200 μl media per well in 96-well round bottom, ultra-low attachment plates (Costar, catalogue number 7007). […] Spheroid like growth was measured in real-time by live-cell imaging (IncuCyteZOOM, Essenbio, 4× objective) acquiring images at day 8. […]
Measure Name: IC50

// known answers, use as guide
Compound	Test System	Result
CC(=O)N[C@H]1C[C@@H]([C@H](C(C)C)N2CC3(CCN(c4ncnnc4Oc4ccc(F)cc4-c4nccnc4C4CC4)C3)C2)C1 (single isomer, unassigned)	KO-52 cells	> 15 µM
CC(C)[C@@H]([C@H]1C[C@@H](N2CCC3(COC3)C2)C1)N1CC2(CCN(c3ncnnc3Oc3ccc(F)cc3-c3nnccc3C3CC3)C2)C1 (single isomer, unassigned)	KO-52 cells	> 15 µM

API: the following record is the query input.
I'd like to know its IC50. The compound in question is CC(C)[C@@H]([C@H]1C[C@@H](N2CC[C@H](S(C)(=O)=O)C2)C1)N1CC2(CCN(c3ncnnc3Oc3ccc(F)cc3-c3ncccc3C3CC3)C2)C1 (single isomer, unassigned) > 15 µM
